Assign GI50 to each entry below.
test system: 786-0 renal; assay: NCI tumour cell line growth inhibition, 48 h

q: Recorded GI50 for COc1ccc(-c2n[nH]nc2-c2csc3ccccc23)cc1OC with 786-0 renal, please?
a: 3.26 µM

q: Lab note: need GI50 for Cn1c(=O)cc2c3c(c(NCCCO)ccc31)C(=O)c1ccccc1-2 on 786-0 renal, anyone have it?
a: 1.53 µM

q: Under 786-0 renal: GI50 value of COCCOC(=O)C1=C(C)NC2=C(C(=O)CC(c3ccccc3OC)C2)C1c1cccc(O)c1 (stereo not given) ?
a: 12.2 µM

q: Item COC(=O)CCC(=O)c1c(C)[nH]c(/C=C2\N=C(c3ccc[nH]3)C=C2OC)c1C with 786-0 renal - GI50?
a: 0.552 µM

q: GET /values?readout=GI50&system=786-0 renal&item= CCC(Sc1nnc2c3ccccc3n(CC)c2n1)C(=O)Nc1ccccc1OC (stereo not given)
a: > 100 µM
